The measured values listed here are drawn from PubChem BioAssay (Tox21).

# test_summary: qHTS assay to identify small molecule HDAC inhibitors (AID 1259364);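 also: wild-type HCT-116 cells with endogenous class I/II HDAC activity; nearly all actives have a fitted effect of over 45% in size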
# test_conditions: HCT-116 HDAC-Glo I/II luminescence, 2 h; series mostly up to 92.4 µM
Records with an inconclusive call do not appear. The source made the active and inactive calls. Calls follow the shape of the dose curve; as a rule, active = well fitted inhibition curve with a large enough effect in the repeat runs; inconclusive = weak or mixed curves; inactive = flat fitted curve, though single readings scatter.
Output constraint: value belongs to active, inactive

Example entries and their recorded answers appear below.
compound: CC(=O)Oc1cc(C(C)C)c(OCCN(C)C)cc1C
qualitative_label: inactive

compound: Cc1c(-c2ccccc2)oc2c(C(=O)OCCN3CCCCC3)cccc2c1=O
qualitative_label: inactive

compound: CCCCCCCCCC/C=C/C#N
qualitative_label: inactive

*Q* Check the results log: what was the call for O=S(=O)(O)C(F)(F)F ?
*A* inactive

*Q* Recorded test call requested for C=Cc1ccccc1
*A* inactive

*Q* What did this assay record as the result for CCOc1ccc(NS(=O)(=O)c2ccc(N)cc2)nn1 ?
*A* inactive

*Q* Look up the recorded call for CN(C)CC[C@@H](c1ccc(Cl)cc1)c1ccccn1 in this test.
*A* inactive

*Q* What did the test return for O=CCCc1ccccc1 ?
*A* inactive

*Q* GET /call?item= CCOc1ccc2nc(N)sc2c1 returns the recorded outcome of this test.
*A* active

*Q* Per the records of this test, what outcome belongs to CCCCCCCCCC#N ?
*A* inactive

*Q* Dear colleague, could you share the recorded outcome for NC1=NCC2c3ccccc3Cc3ccccc3N12 (stereo not given) when you have a moment?
*A* inactive

*Q* Look up the recorded call for CCOC(=O)C(Br)c1ccccc1 (stereo not given) in this test.
*A* inactive

*Q* What outcome does the record of this test show for CC(C)(C)c1cccc(O)c1 ?
*A* inactive

*Q* What is the recorded call for this compound in the test? CCOc1ccc(NC(N)=O)cc1
*A* inactive

*Q* What did this assay record as the result for CCOC(=O)C1CC(=O)C(=C(O)C2CC2)C(=O)C1 (stereo not given) ?
*A* inactive

====

# test_summary: qHTS assay to test for compound auto fluorescence at 535 nm (green) in HepG2 cell free culture (AID 720686); also: % is scaled to controls: 0 for no effect and ±100 for the full control effect
# test_conditions: Cell-free medium, green autofluorescence 485/535 nm; series mostly up to 91.3 µM
Active and inactive are the calls of the source. Calls follow the shape of the dose curve; as a rule, active = well fitted curve in the direction sought with a large enough effect in the repeat runs; inconclusive = weak or mixed curves; inactive = flat fitted curve, though single readings scatter.
measurement_label: fluorescence, % of fluorescein control

Some solved cases for reference:
compound: CCCCCCCCCCCCCCCCOP(=O)([O-])OCC[N+](C)(C)C
fluorescence, % of fluorescein control: inactive

compound: FC(F)(F)c1ccccc1
fluorescence, % of fluorescein control: inactive

compound: O=C1CCCCC1C1CCCCC1 (stereo unspecified)
fluorescence, % of fluorescein control: inactive

compound: CC(C)(C)C1CCCCC1=O (stereo unspecified)
fluorescence, % of fluorescein control: inactive

compound: CCN(CC)CCOc1ccc(Cc2ccccc2)cc1
fluorescence, % of fluorescein control: inactive

Let us examine a further case.
*Q* Please give the documented fluorescence, % of fluorescein control of CC1(C)O[C@@H]2C[C@H]3[C@@H]4CCC5=CC(=O)CC[C@]5(C)[C@@]4(F)[C@@H](O)C[C@]3(C)[C@]2(C(=O)CCl)O1
*A* 0.0501% [at 18.6 µM] (inactive)

====

# tgt: Glucocorticoid receptor (Homo sapiens)
# test_summary: qHTS assay to identify small molecule agonists of the glucocorticoid receptor (GR) signaling pathway (AID 720691); also: % is scaled to controls: 0 for no effect and ±100 for the full control effect
# test_conditions: GR-bla HeLa, beta-lactamase reporter ratio, 18 h; series mostly up to 62.4 µM
Results filed as inconclusive are left out. The source made the active and inactive calls. Calls follow the shape of the dose curve; as a rule, active = well fitted activation curve with a large enough effect in the signal ratio in the repeat runs (not every such curve was filed as active); inconclusive = weak or mixed curves, or effect the other way; inactive = no such curve, though single readings can be large or run the other way; the % refers to the signal ratio.
measurement_label: outcome

compound: CC(C)CC(=O)OCc1ccccc1
outcome: inactive
--
compound: Nc1cccc(S(=O)(=O)O)c1
outcome: inactive
--
compound: O=S(=O)(O)C(F)(F)F
outcome: inactive
--
compound: CC(C)C1=CC2=CC[C@@H]3[C@](C)(CCC[C@@]3(C)C(=O)O)[C@H]2CC1
outcome: inactive
--
compound: COC(=O)c1ccc(OC)cc1
outcome: inactive

*Q* For Glucocorticoid receptor (Homo sapiens), give the measured outcome of the entry CC1=C(O)C(=O)OC1C (stereo not drawn)
*A* inactive

*Q* Determine reported outcome for C[C@]12C(=O)OC(=O)[C@H]1[C@H]1C=C[C@@H]2C1 ; test system: Glucocorticoid receptor (Homo sapiens).
*A* inactive

*Q* State measured outcome of the compound CC(=O)N(CC(O)CN(C(C)=O)c1c(I)c(C(=O)NCC(O)CO)c(I)c(C(=O)NCC(O)CO)c1I)c1c(I)c(C(=O)NCC(O)CO)c(I)c(C(=O)NCC(O)CO)c1I (stereo not drawn) with Glucocorticoid receptor (Homo sapiens).
*A* inactive

*Q* Specify the recorded outcome for C=CC(C)(O)CC/C=C(\C)CCC=C(C)C (stereo not drawn) , system: Glucocorticoid receptor (Homo sapiens).
*A* inactive

*Q* Please report the measured outcome for CN(C)CC[C@@H](c1ccc(Cl)cc1)c1ccccn1 tested on Glucocorticoid receptor (Homo sapiens).
*A* inactive
